The measured values listed here are drawn from patent US20100120715A1.

TARGET_OF_ASSAY: Class C P99 AmpC (Enterobacter cloacae, UniProt P05364)
Sequence (P05364 21-381): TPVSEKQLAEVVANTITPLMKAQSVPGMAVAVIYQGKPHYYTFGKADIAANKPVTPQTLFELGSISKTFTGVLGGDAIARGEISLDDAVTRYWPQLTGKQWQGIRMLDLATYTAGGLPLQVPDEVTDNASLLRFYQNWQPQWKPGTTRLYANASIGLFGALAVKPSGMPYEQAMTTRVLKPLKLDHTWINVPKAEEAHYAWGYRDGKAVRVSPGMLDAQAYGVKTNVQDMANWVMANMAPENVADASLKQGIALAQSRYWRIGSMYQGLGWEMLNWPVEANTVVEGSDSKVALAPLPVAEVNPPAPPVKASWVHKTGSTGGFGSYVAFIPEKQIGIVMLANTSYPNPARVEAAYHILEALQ
pIC50: −log10 of the molar value.
MEASURED_ENDPOINT: pIC50

Check out these entries, answers already filled in.
INSERT INTO results (compound, measured_endpoint, recorded_value) VALUES
  ('O=C(N[C@@H](Cc1cccc(C(=O)O)c1O)B(O)O)c1ccc(Cl)cc1', 'pIC50', '> 8.00'),
  ('O=C(N[C@@H](Cc1cccc(C(=O)O)c1O)B(O)O)c1cnc2ccccc2n1', 'pIC50', '> 8.00');

Exam item: Enter reported pIC50 observed with Class C P99 AmpC (Enterobacter cloacae, UniProt P05364) for O=C(N[C@@H](Cc1cccc(C(=O)O)c1O)B(O)O)c1ccc(Cl)nc1
Marked response: > 8.00

Exam item: // next record CCC(=O)N[C@@H](Cc1cccc(C(=O)O)c1O)B(O)O
Marked response: 7.00 to 8.00

Exam item: // next record CCCCCCC(=O)N[C@@H](Cc1cccc(C(=O)O)c1O)B(O)O
Marked response: > 8.00

----------
TARGET_OF_ASSAY: Class A ESBL SHV-5 (Klebsiella pneumoniae, UniProt P0A3M1)
Construct: made in house; host or cells: E. coli BL21(DE3) for purified enzyme; E. coli cells containing SHV-5 for extracts
Sequence (P0A3M1 22-286): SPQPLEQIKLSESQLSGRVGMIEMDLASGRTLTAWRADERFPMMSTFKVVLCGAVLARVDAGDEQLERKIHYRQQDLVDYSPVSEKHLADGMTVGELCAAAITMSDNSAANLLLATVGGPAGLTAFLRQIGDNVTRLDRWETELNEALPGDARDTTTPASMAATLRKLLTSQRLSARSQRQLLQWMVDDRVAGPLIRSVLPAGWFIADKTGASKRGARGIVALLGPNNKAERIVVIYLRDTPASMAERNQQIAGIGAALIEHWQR
Type: biochemical, E. coli
ASSAY_SETUP: cellular extracts of E. coli containing SHV-5 (Examples 2-30); nitrocefin 100 μM, PBS pH 7.0; read-out: SHV-5 IC50 Range
Catalogue of molecules with associated IC50

INSERT INTO results (molecule, target_of_assay, measured_endpoint, recorded_value) VALUES
  ('O=C(Cc1cc(Br)cs1)N[C@@H](Cc1cccc(C(=O)O)c1O)B(O)O', 'Class A ESBL SHV-5 (Klebsiella pneumoniae, UniProt P0A3M1)', 'IC50', '< 10 nM'),
  ('NC(=O)COc1cccc(CC(=O)N[C@@H](Cc2cccc(C(=O)O)c2O)B(O)O)c1', 'Class A ESBL SHV-5 (Klebsiella pneumoniae, UniProt P0A3M1)', 'IC50', '< 10 nM'),
  ('CCCCCC(=O)N[C@@H](Cc1cccc(C(=O)O)c1O)B(O)O', 'Class A ESBL SHV-5 (Klebsiella pneumoniae, UniProt P0A3M1)', 'IC50', '< 10 nM'),
  ('O=C(Cc1ccccc1)N[C@@H](Cc1cccc(C(=O)O)c1O)B(O)O', 'Class A ESBL SHV-5 (Klebsiella pneumoniae, UniProt P0A3M1)', 'IC50', '< 10 nM'),
  ('COc1ccc(OC)c(CC(=O)N[C@@H](Cc2cccc(C(=O)O)c2O)B(O)O)c1', 'Class A ESBL SHV-5 (Klebsiella pneumoniae, UniProt P0A3M1)', 'IC50', '< 10 nM');

Exam item: Query (molecule): O=C(O)c1cccc(C[C@H](NC(=O)C2CCCC2)B(O)O)c1O ; field requested: IC50
Marked response: 100 to 1000 nM

Exam item: // next record O=C(N[C@@H](Cc1cccc(C(=O)O)c1O)B(O)O)c1ccccc1
Marked response: 10 to 100 nM

Exam item: // next record O=C(O)COc1cccc(CC(=O)N[C@@H](Cc2cccc(C(=O)O)c2O)B(O)O)c1
Marked response: < 10 nM

Exam item: // next record CCCCCCC(=O)N[C@@H](Cc1cccc(C(=O)O)c1O)B(O)O
Marked response: < 10 nM

Exam item: // next record O=C(COCc1ccccc1)N[C@@H](Cc1cccc(C(=O)O)c1O)B(O)O
Marked response: < 10 nM

Exam item: // next record O=C(N[C@@H](Cc1cccc(C(=O)O)c1O)B(O)O)c1cccs1
Marked response: 10 to 100 nM

Exam item: // next record O=C(O)c1cccc(C[C@H](NC(=O)C2CC2)B(O)O)c1O
Marked response: 100 to 1000 nM

Exam item: // next record O=C(CO)N[C@@H](Cc1cccc(C(=O)O)c1O)B(O)O
Marked response: 100 to 1000 nM

Exam item: // next record CC(C)C(=O)N[C@@H](Cc1cccc(C(=O)O)c1O)B(O)O
Marked response: 100 to 1000 nM

Exam item: // next record O=C(Cc1cc(O)ccc1O)N[C@@H](Cc1cccc(C(=O)O)c1O)B(O)O
Marked response: < 10 nM

Exam item: // next record O=C(N[C@@H](Cc1cccc(C(=O)O)c1O)B(O)O)c1cccc(O)c1
Marked response: 10 to 100 nM

Exam item: // next record N[C@H](C(=O)N[C@@H](Cc1cccc(C(=O)O)c1O)B(O)O)c1ccccc1.O=CO [Example 12, formate salt]
Marked response: 100 to 1000 nM

Exam item: // next record O=C(O)c1cccc(C[C@H](NC(=O)c2cccc3ccccc23)B(O)O)c1O
Marked response: 10 to 100 nM

----------
TARGET_OF_ASSAY: Class A ESBL SHV-5 (Klebsiella pneumoniae, UniProt P0A3M1)
Construct: made in house; host or cells: E. coli BL21(DE3) for purified enzyme; E. coli cells containing SHV-5 for extracts
Format: biochemical, E. coli
ASSAY_SETUP: cellular extracts of E. coli containing SHV-5 (Examples 2-30); nitrocefin 100 μM, PBS pH 7.0; read-out: SHV-5 IC50 Range
pIC50: −log10 of the molar value.
MEASURED_ENDPOINT: pIC50

Check out these entries, answers already filled in.
INSERT INTO results (compound, measured_endpoint, recorded_value) VALUES
  ('O=C(Cc1cccs1)N[C@@H](Cc1ccc(C(=O)O)cc1O)B(O)O', 'pIC50', '7.00 to 8.00'),
  ('CC(=O)N[C@@H](Cc1cccc(C(=O)O)c1O)B(O)O', 'pIC50', '6.00 to 7.00'),
  ('O=C(N[C@@H](Cc1cccc(C(=O)O)c1O)B(O)O)c1ccc(F)cc1', 'pIC50', '7.00 to 8.00');

Exam item: Query (compound): CC(C)(C)CC(=O)N[C@@H](Cc1cccc(C(=O)O)c1O)B(O)O ; field requested: pIC50
Marked response: 7.00 to 8.00

Exam item: // next record Cl.NCCOc1cccc(CC(=O)N[C@@H](Cc2cccc(C(=O)O)c2O)B(O)O)c1 [Example 4, hydrochloride]
Marked response: > 8.00

----------
TARGET_OF_ASSAY: UniProt Q9EXV5
Sequence (Q9EXV5 entry or part of it): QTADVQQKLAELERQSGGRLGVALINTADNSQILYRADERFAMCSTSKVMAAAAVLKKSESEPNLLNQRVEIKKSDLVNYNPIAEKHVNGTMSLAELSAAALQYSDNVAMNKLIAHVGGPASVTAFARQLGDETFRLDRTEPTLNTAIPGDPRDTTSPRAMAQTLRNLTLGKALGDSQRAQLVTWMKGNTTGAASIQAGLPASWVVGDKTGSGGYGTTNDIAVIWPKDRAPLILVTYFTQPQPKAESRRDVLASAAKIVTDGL
TEST: β-lactamase enzyme inhibition (nitrocefin hydrolysis), CTXM-15
ASSAY_SETUP: purified enzyme; nitrocefin 100 μM, PBS pH 7.0; read-out: CTXM-15 IC50 Range
MEASURED_ENDPOINT: IC50

Check out these entries, answers already filled in.
INSERT INTO measurements (compound, recorded_value) VALUES
  ('O=C(N[C@@H](Cc1cccc(C(=O)O)c1O)B(O)O)c1ccc(F)cc1', '< 10 nM'),
  ('O=C(N[C@@H](Cc1cccc(C(=O)O)c1O)B(O)O)c1cccnc1', '< 10 nM'),
  ('Cl.O=C(Cc1ccncc1)N[C@@H](Cc1cccc(C(=O)O)c1O)B(O)O [Example 52, hydrochloride]', '< 10 nM'),
  ('O=C(N[C@@H](Cc1cccc(C(=O)O)c1O)B(O)O)c1ccno1', '< 10 nM'),
  ('O=C(CCC(=O)c1cccs1)N[C@@H](Cc1cccc(C(=O)O)c1O)B(O)O', '< 10 nM');

Exam item: Query (compound): NCC(=O)N[C@@H](Cc1cccc(C(=O)O)c1O)B(O)O.O=CO [Example 41, formate salt] ; field requested: IC50
Marked response: 100 to 1000 nM

Exam item: // next record CC(C)(C)CC(=O)N[C@@H](Cc1cccc(C(=O)O)c1O)B(O)O
Marked response: 10 to 100 nM

Exam item: // next record CC(C)C(=O)N[C@@H](Cc1cccc(C(=O)O)c1O)B(O)O
Marked response: 10 to 100 nM

----------
Catalogue of molecules with associated pIC50
TARGET_OF_ASSAY: UniProtKB Q9F663
Sequence (Q9F663 25-293 limits assumed): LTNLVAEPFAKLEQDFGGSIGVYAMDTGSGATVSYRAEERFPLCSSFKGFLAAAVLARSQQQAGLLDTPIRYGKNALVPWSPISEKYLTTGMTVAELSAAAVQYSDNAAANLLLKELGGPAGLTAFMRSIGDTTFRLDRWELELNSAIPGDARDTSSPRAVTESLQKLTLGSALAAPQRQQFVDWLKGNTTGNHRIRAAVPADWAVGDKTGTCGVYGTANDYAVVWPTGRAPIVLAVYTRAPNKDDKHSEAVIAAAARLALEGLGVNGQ
TEST: β-lactamase enzyme inhibition (nitrocefin hydrolysis), KPC-2
ASSAY_SETUP: purified enzyme; nitrocefin 100 μM, PBS pH 7.0; read-out: KPC-2 IC50 Range
Protocol: Isolation of β-lactamases. For all examples, purified beta-lactamase enzymes were used to measure a compounds' ability to inhibit the Class A ESBL CTXM-15, the Class C P99 AmpC and the Class A carbapenemase KPC-2. […] The enzyme preparations are described herein. […] β-lactamase Inhibition. […] Maximum rates of metabolism were then compared to those in control wells (without inhibitors), and percentages of enzyme inhibition were calculated for each concentration of inhibitor. […]
pIC50: −log10 of the molar value.

INSERT INTO results (molecule, recorded_value) VALUES
  ('O=C(CNC(=O)c1ccccc1)N[C@@H](Cc1cccc(C(=O)O)c1O)B(O)O', '> 8.00'),
  ('O=C(O)c1cccc(C[C@H](NC(=O)[C@@H]2CCCN2)B(O)O)c1O.O=CO', '6.00 to 7.00'),
  ('O=C(N[C@@H](Cc1cccc(C(=O)O)c1O)B(O)O)c1cccc(O)c1', '7.00 to 8.00'),
  ('O=C(N[C@@H](Cc1cccc(C(=O)O)c1O)B(O)O)c1ccc(Cl)cc1', '> 8.00'),
  ('NCCC(=O)N[C@@H](Cc1cccc(C(=O)O)c1O)B(O)O.O=CO [Example 38, formate salt]', '6.00 to 7.00'),
  ('CCCCCC(=O)N[C@@H](Cc1cccc(C(=O)O)c1O)B(O)O', '> 8.00'),
  ('CC(=O)N1CCC(C(=O)N[C@@H](Cc2cccc(C(=O)O)c2O)B(O)O)CC1', '> 8.00'),
  ('O=C(N[C@@H](Cc1cccc(C(=O)O)c1O)B(O)O)c1ccc(F)cc1', '> 8.00');

Please examine the following record next.
Exam item: Query (molecule): O=C(Cc1cc(O)ccc1O)N[C@@H](Cc1cccc(C(=O)O)c1O)B(O)O ; field requested: pIC50
Marked response: > 8.00
